So I've got a bunch of compounds here, and I need their EC50 values.
Target: JAK1 (Homo sapiens)
Construct: JAK1 (aa 850-1154) and TYK2 (aa 871-1187) are expressed with an N-terminally fused GST-tag; GST (N); purchased Carna Biosciences, Inc; host or cells: baculovirus expression system
Experiment: JAK1 kinase assay (HTRF, inhibition of phosphorylation of a synthetic peptide)
Type: biochemical
Conditions: catalytic domain aa 850-1154, GST-tag; 7 μM ATP (Km); read-out: JAK1 kinase inhibitory activity (EC50)
Experimental: JAK1, JAK2, JAK3 and TYK2 Kinase Assays: Human baculovirus-expressed JAK1, 2, 3 and TYK2 were purchased from Carna Biosciences, Inc. All four purified enzymes contain only the catalytic domain. […] Inhibition of phosphorylation of a synthetic peptide was measured in an HTRF-based assay using the TK substrate-Biotin from the CisbioHTRFKinEASE TK kit. […] The HTRF signal is read using an Envision plate reader.

Worked cases, EC50 given:
O=C(c1ccsn1)N1CCN(c2ncnc3[nH]ccc23)CC2(CC2)C1
100 to 1000 nM
O=C(c1ccnnc1)N1CCN(c2ncnc3[nH]ccc23)CC2(CC2)C1
100 to 1000 nM
CNS(=O)(=O)c1ccc(C(=O)N2CCN(c3ncnc4[nH]ccc34)CC3(CC3)C2)cc1
100 to 1000 nM
N#Cc1cccc(OCC(=O)N2CCN(c3ncnc4[nH]ccc34)CC3(CC3)C2)c1
100 to 1000 nM
N#CCCC(=O)N1CCN(c2ncnc3[nH]ccc23)CCC12CC2
100 to 1000 nM
S=C(CC1CCCC1)N1CCCN(c2ncnc3[nH]ccc23)CC12CC2
< 100 nM

Go through the items and report each one's EC50.
1. Cc1cc(C(=O)N2CCN(c3ncnc4[nH]ccc34)CC3(CC3)C2)no1
2. N#Cc1ccccc1C(=O)N1CCN(c2ncnc3[nH]ccc23)CC2(CC2)C1
3. N#C[C@H]1CCCN1C(=O)N1CCN(c2ncnc3[nH]ccc23)CC2(CC2)C1

1. 100 to 1000 nM
2. > 1000 nM
3. 100 to 1000 nM

---

So I've got a bunch of molecules here, and I need their EC50 values.
target: JAK3 (Homo sapiens, UniProt P52333); construct: All four purified enzymes contain only the catalytic domain; His (N); experiment: JAK3 kinase assay (HTRF, inhibition of phosphorylation of a synthetic peptide); settings: catalytic domain, His-tag; 2 μM ATP (Km); read-out: JAK3 kinase inhibitory activity (EC50)
Sequence (P52333 822-1111 limits assumed): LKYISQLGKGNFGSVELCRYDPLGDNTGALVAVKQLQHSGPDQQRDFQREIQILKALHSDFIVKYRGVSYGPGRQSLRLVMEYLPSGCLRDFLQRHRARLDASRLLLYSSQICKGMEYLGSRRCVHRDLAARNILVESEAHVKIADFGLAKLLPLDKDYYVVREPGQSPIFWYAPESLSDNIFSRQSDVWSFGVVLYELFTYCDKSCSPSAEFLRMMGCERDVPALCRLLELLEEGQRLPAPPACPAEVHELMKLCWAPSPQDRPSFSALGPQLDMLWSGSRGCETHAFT

O=C(c1cnsc1)N1CCCN(c2ncnc3[nH]ccc23)CC12CC2
100 to 1000 nM
O=C(Cc1ccc(F)cc1)N1CCCN(c2ncnc3[nH]ccc23)CC12CC2
> 1000 nM
CCCCN1CCN(c2ncnc3[nH]ccc23)CC2(CC2)C1
> 1000 nM

Go through the items and report each one's EC50.
1. N#Cc1c[nH]c(C(=O)N2CCCN(c3ncnc4[nH]ccc34)CC23CC3)c1
2. O=C(c1ccnc(O)c1)N1CCN(c2ncnc3[nH]ccc23)CC2(CC2)C1
3. NS(=O)(=O)c1ccc(CCC(=O)N2CCN(c3ncnc4[nH]ccc34)CC3(CC3)C2)cc1
4. CN(CC#N)C(=O)N1CCN(c2ncnc3[nH]ccc23)CC2(CC2)C1
5. Cc1cc(CC(=O)N2CCN(c3ncnc4[nH]ccc34)CC3(CC3)C2)on1
6. O=C(c1ccc(F)cc1)N1CCCN(c2ncnc3[nH]ccc23)CC12CC2

["< 100 nM", "> 1000 nM", "< 100 nM", "100 to 1000 nM", "100 to 1000 nM", "100 to 1000 nM"]

---

target: JAK2 (Homo sapiens, UniProt O60674); construct: All four purified enzymes contain only the catalytic domain; His (N); assay: JAK2 kinase assay (HTRF, inhibition of phosphorylation of a synthetic peptide); details: catalytic domain, His-tag; 4 μM ATP (Km); read-out: JAK2 kinase inhibitory activity (EC50)
Sequence (O60674 849-1124 limits assumed): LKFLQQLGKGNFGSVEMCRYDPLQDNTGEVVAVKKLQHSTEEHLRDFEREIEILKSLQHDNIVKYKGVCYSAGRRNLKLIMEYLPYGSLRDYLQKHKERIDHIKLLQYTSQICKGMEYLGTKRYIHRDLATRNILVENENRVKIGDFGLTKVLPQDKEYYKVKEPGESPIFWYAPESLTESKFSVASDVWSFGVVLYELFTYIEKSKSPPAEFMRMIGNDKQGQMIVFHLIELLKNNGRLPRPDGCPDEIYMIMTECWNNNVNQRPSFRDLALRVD
measure_name: EC50

Worked cases, EC50 given:
O=C(c1ccc[nH]1)N1CCCN(c2ncnc3[nH]ccc23)CC12CC2 [Example 255]
< 0.1 µM
N#CCc1ccccc1C(=O)N1CCN(c2ncnc3[nH]ccc23)CCC12CC2 [Example 48]
> 1 µM
O=C(CN1CCOC1=O)N1CCN(c2ncnc3[nH]ccc23)CC2(CC2)C1 [Example 81]
0.1 to 1 µM
O=C(c1c[nH]nn1)N1CCCN(c2ncnc3[nH]ccc23)CC12CC2 [Example 205]
0.1 to 1 µM

Now let's try a different one.
For the compound N#Cc1c[nH]c(C(=O)N2CCCN(c3ncnc4[nH]ccc34)CC23CC3)c1 [Example 209] , give its measured EC50 value.
< 0.1 µM

---

molecular target: JAK1 (Homo sapiens); construct: JAK1 (aa 850-1154) and TYK2 (aa 871-1187) are expressed with an N-terminally fused GST-tag; GST (N); assay: JAK1 kinase assay (HTRF, inhibition of phosphorylation of a synthetic peptide); conditions: catalytic domain aa 850-1154, GST-tag; 7 μM ATP (Km); read-out: JAK1 kinase inhibitory activity (EC50)
pEC50: −log10 of the molar value.
So I've got a bunch of compounds here, and I need their pEC50 values.

O=C(c1cncs1)N1CCN(c2ncnc3[nH]ccc23)CC2(CC2)C1
6.00 to 7.00
Cc1ncc(CC(=O)N2CCN(c3ncnc4[nH]ccc34)CC3(CC3)C2)s1
6.00 to 7.00
Cc1cc(C(=O)N2CCCN(c3ncnc4[nH]ccc34)CC23CC3)sn1
< 6.00
N#Cc1ccc(C(=O)N2CCN(c3ncnc4[nH]ccc34)CC3(CC3)C2)cc1F
6.00 to 7.00
O=C(c1ccncc1)N1CCN(c2ncnc3[nH]ccc23)CC2(CC2)C1
6.00 to 7.00
O=C(Nc1ccccc1)N1CCCN(c2ncnc3[nH]ccc23)CC12CC2
> 7.00

Go through the items and report each one's pEC50.
1. Cc1ccncc1C(=O)N1CCN(c2ncnc3[nH]ccc23)CC2(CC2)C1
2. O=C(c1cnco1)N1CCCN(c2ncnc3[nH]ccc23)CC12CC2
3. O=C(c1ccncc1)N1CCCN(c2ncnc3[nH]ccc23)CC12CC2

1: 6.00 to 7.00; 2: 6.00 to 7.00; 3: 6.00 to 7.00

---

target: JAK1 (Homo sapiens, UniProt P23458); construct: JAK1 (aa 850-1154) and TYK2 (aa 871-1187) are expressed with an N-terminally fused GST-tag; GST (N); assay: JAK1 kinase assay (HTRF, inhibition of phosphorylation of a synthetic peptide); details: catalytic domain aa 850-1154, GST-tag; 7 μM ATP (Km); read-out: JAK1 kinase inhibitory activity (EC50)
Sequence (P23458 850-1154): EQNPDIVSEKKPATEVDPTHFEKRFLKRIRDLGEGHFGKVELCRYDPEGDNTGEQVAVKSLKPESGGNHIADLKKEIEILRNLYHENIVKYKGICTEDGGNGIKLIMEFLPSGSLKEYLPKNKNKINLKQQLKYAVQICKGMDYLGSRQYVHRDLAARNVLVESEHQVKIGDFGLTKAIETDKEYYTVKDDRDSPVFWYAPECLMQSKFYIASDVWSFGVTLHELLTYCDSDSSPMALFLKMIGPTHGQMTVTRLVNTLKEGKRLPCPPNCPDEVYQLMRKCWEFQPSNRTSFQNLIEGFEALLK
pEC50: −log10 of the molar value.
So I've got a bunch of compounds here, and I need their pEC50 values.

Worked cases, pEC50 given:
NS(=O)(=O)c1cccc(C(=O)N2CCN(c3ncnc4[nH]ccc34)CC3(CC3)C2)c1
6.00 to 7.00
O=C(c1cscn1)N1CCN(c2ncnc3[nH]ccc23)CC2(CC2)C1
6.00 to 7.00

Go through the items and report each one's pEC50.
1. CC(=O)Nc1ccc(CC(=O)N2CCN(c3ncnc4[nH]ccc34)CC3(CC3)C2)cc1
2. N#CCc1ccc(CC(=O)N2CCN(c3ncnc4[nH]ccc34)CC3(CC3)C2)cc1
3. Cc1cc(CC(=O)N2CCN(c3ncnc4[nH]ccc34)CC3(CC3)C2)on1
4. Cc1[nH]ncc1C(=O)N1CCCN(c2ncnc3[nH]ccc23)CC12CC2
5. CN1CCN(CC(=O)N2CCCN(c3ncnc4[nH]ccc34)CC23CC3)C1=O
6. Cc1cc(C(=O)N2CCN(c3ncnc4[nH]ccc34)CC3(CC3)C2)n(C)n1

["6.00 to 7.00", "> 7.00", "> 7.00", "< 6.00", "6.00 to 7.00", "< 6.00"]

Go through the items and report each one's pEC50.
1. Cc1oncc1C(=O)N1CCN(c2ncnc3[nH]ccc23)CC2(CC2)C1
2. CCCCN1CCN(c2ncnc3[nH]ccc23)CC2(CC2)C1

1. 6.00 to 7.00
2. < 6.00

---

So I've got a bunch of molecules here, and I need their pEC50 values.
target: JAK3 (Homo sapiens, UniProt P52333); construct: All four purified enzymes contain only the catalytic domain; His (N); assay: JAK3 kinase assay (HTRF, inhibition of phosphorylation of a synthetic peptide); conditions: catalytic domain, His-tag; 2 μM ATP (Km); read-out: JAK3 kinase inhibitory activity (EC50)
pEC50: −log10 of the molar value.

Worked cases, pEC50 given:
O=C(C1CCCCC1)N1CCCN(c2ncnc3[nH]ccc23)CC12CC2 [Example 93]
6.00 to 7.00
COc1cccc(C(=O)N2CCN(c3ncnc4[nH]ccc34)CC3(CC3)C2)c1OC [Example 2]
< 6.00
Cc1[nH]c(C(=O)N2CCCN(c3ncnc4[nH]ccc34)CC23CC3)cc1C#N [Example 278]
6.00 to 7.00
CC(=O)N1CCC(C(=O)N2CCN(c3ncnc4[nH]ccc34)CC3(CC3)C2)CC1 [Example 6]
< 6.00
c1ccc(CN2CCCN(c3ncnc4[nH]ccc34)CC23CC3)cc1 [Example 280]
< 6.00
Cc1cc(C(=O)N2CCCN(c3ncnc4[nH]ccc34)CC23CC3)on1 [Example 122]
6.00 to 7.00

Go through the items and report each one's pEC50.
1. O=C(c1ccccc1Cl)N1CCCN(c2ncnc3[nH]ccc23)CC12CC2 [Example 178]
2. O=C(c1cnsc1)N1CCN(c2ncnc3[nH]ccc23)CC2(CC2)C1 [Example 210]
3. N#Cc1ccc(C(=O)N2CCN(c3ncnc4[nH]ccc34)CC3(CC3)C2)s1 [Example 51]
4. Cc1c(S(N)(=O)=O)csc1C(=O)N1CCN(c2ncnc3[nH]ccc23)CC2(CC2)C1 [Example 25]
5. Cn1cncc1C(=O)N1CCCN(c2ncnc3[nH]ccc23)CC12CC2 [Example 145]

< 6.00
6.00 to 7.00
> 7.00
6.00 to 7.00
< 6.00
